Experiment: Pharmacokinetic and drug–drug interaction study in rats (plasma, UPLC–MS/MS)
Conditions: Sprague Dawley, rat, plasma, po, 1.2 mg/kg, CLz/F, lenvatinib in rat plasma; lenvatinib 1.2 mg/kg oral co-administered with canagliflozin 10 mg/kg (VLEN+CA); n = 6; mean ± SD
resultType: CL/F (mL/min/kg)
Your answer should be a plain number; it is taken to be in mL/min/kg.

Respond only with CL/F recorded for COc1cc2nccc(Oc3ccc(NC(=O)NC4CC4)c(Cl)c3)c2cc1C(N)=O
2.83

====

Assay: Pharmacokinetic and drug–drug interaction study in rats (plasma, UPLC–MS/MS)
Conditions: Sprague Dawley, rat, plasma, po, 1.2 mg/kg, Vz/F, lenvatinib in rat plasma; oral single dose lenvatinib 1.2 mg/kg alone (IILEN); n = 6; mean ± SD
resultType: Vd/F (L/kg)
Your answer should be a plain number; it is taken to be in L/kg.

Respond only with Vd/F recorded for COc1cc2nccc(Oc3ccc(NC(=O)NC4CC4)c(Cl)c3)c2cc1C(N)=O
3.31
